Test system: Proteus mirabilis 29906 (Pm) lysate
Test protocol: Inhibition of formation of TMA from choline in Proteus mirabilis lysate (d9-choline to d9-TMA, LC-MS/MS)
Assay type: biochemical
Test parameters: conversion of choline to TMA; Pm lysate 1.5 mg/mL protein, 50 μM d9-choline chloride, 37° C., two hours; read-out: TMA Inhibition (IC50, mol/L)
Attribute measured: pIC50
FYI, pIC50 means -log10 of a concentration in mol per litre.

Bench note: what pIC50 did Oc1ccc[n+](CCCN=C=S)c1 [Compound 32] show? 2.70

Bench note: what pIC50 did COCCC[N+](C)(C)CCN=C=S [Compound 21] show? 4.50

Bench note: what pIC50 did C[N+]1(CCN=C=S)CCOCC1 [Compound 40] show? 3.54

Bench note: what pIC50 did C[N+](C)(CCN=C=S)CC1CO1 (centres unmarked) [Compound 15] show? 3.71

Bench note: what pIC50 did C#CC[N+](C)(C)CCN=C=S [Compound 37] show? 5.70

Bench note: what pIC50 did S=C=NCCC[N+]12CCC(CC1)CC2 [Compound 45] show? 3.94

Bench note: what pIC50 did COCC[N+](C)(C)CCN=C=S [Compound 17] show? 4.50

Bench note: what pIC50 did C[N+](C)(CCN=C=S)CCOCc1ccccc1 [Compound 11] show? 4.79

Bench note: what pIC50 did S=C=NCC[n+]1ccccc1 [Compound 28] show? 4.50

Bench note: what pIC50 did C[N+]1(CCN=C=S)CCCCC1 [Compound 41] show? 4.50

Bench note: what pIC50 did CC[N+](CC)(CCCCl)CCCN=C=S [Compound 26] show? 4.30

Bench note: what pIC50 did CC[N+](CC)(CCCN=C=S)CC1CO1 (centres unmarked) [Compound 16] show? 4.40

Bench note: what pIC50 did C[N+]1(CCN=C=S)CCC(O)CC1 (centres unmarked) [Compound 39] show? 4.59

Bench note: what pIC50 did CC[N+](CC)(CCF)CCCN=C=S [Compound 27] show? 4.50

Bench note: what pIC50 did CC[N+](CC)(CCCN=C=S)CCCOC [Compound 22] show? 4.50

Bench note: what pIC50 did OCc1cccc[n+]1CCN=C=S [Compound 30] show? 4.60

Bench note: what pIC50 did C[N+](C)(CCBr)CCN=C=S [Compound 14] show? 4.60

Bench note: what pIC50 did CCOCC[N+](CC)(CC)CCCN=C=S [Compound 20] show? 4.70

Bench note: what pIC50 did S=C=NCC[N+]12CCC(CC1)CC2 [Compound 42] show? 4.92

Bench note: what pIC50 did CC[N+](CC)(CCCN=C=S)CCOCc1ccccc1 [Compound 12] show? 4.54

Bench note: what pIC50 did C[N+](C)(CCN=C=S)CCOc1ccccc1 [Compound 13] show? 5.88

* * *

System: Proteus mirabilis 29906 (Pm) lysate
Test protocol: Inhibition of formation of TMA from choline in Proteus mirabilis lysate (d9-choline to d9-TMA, LC-MS/MS)
Assay type: biochemical
Test parameters: conversion of choline to TMA; Pm lysate 1.5 mg/mL protein, 50 μM d9-choline chloride, 37° C., two hours; read-out: TMA Inhibition (IC50, mol/L)
Attribute measured: log10 of IC50 (log10 of the value in µM)
Please keep in mind that the values are log10 of IC50 expressed in µM.

Bench note: what log10 of IC50 did CC[N+](CC)(CCCN=C=S)CCOc1ccccc1 [Compound 10] show? 1.47

Bench note: what log10 of IC50 did Oc1ccc[n+](CCN=C=S)c1 [Compound 29] show? 3.10

Bench note: what log10 of IC50 did CCOC(=O)C(=O)C[N+](C)(C)CCCN=C=S [Compound 6] show? 1.16

Bench note: what log10 of IC50 did OCC[N+]1(CCN=C=S)CCCCC1 [Compound 33] show? 2.30

Bench note: what log10 of IC50 did C=C(C[N+](C)(C)CCN=C=S)C(=O)OC [Compound 38] show? 1.15

Bench note: what log10 of IC50 did C[N+]1(CCN=C=S)CCCCC1CO (stereo not drawn) [Compound 34] show? 2.50

Data provenance is patent US10213407B2.
